Target: T1, Human CD3eg linker (human)
T1 construct: Single chain: CD3 epsilon and gamma subunits joined by a 29-mer linker, Flag-tag at the C-terminus; also called recombinant human CD3
T1 chain: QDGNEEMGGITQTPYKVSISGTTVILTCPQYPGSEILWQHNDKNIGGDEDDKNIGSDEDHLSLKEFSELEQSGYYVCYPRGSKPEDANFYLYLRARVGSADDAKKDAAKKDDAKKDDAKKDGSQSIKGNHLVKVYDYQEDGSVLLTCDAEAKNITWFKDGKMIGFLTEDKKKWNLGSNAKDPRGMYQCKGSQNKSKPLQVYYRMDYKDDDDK
Experiment: affinity relative to template H183/L072, single-mutation scan
Answer each item with its documented fold change of affinity for CD3.

A selection of reference data follows.
# BINDER, fold change of affinity for CD3
data = [
    ("H183/L072 with V94Y (Kabat) in VL dBBDu072L (antibody, name in Kabat numbering, V domains shown, Single-mutation variant of H183L072) VH: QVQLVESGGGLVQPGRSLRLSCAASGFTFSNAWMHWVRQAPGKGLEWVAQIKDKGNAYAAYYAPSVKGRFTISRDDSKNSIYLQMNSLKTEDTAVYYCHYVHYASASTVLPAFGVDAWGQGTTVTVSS VL: DIVMTQSPLSLPVTPGEPASISCQASQELVHMNRNTYLHWYQQKPGQAPRLLIYKVSNRFPGVPDRFSGSGSGTDFTLKISRVEAEDVGVYYCAQGTSYPFTFGQGTKLEIK", "0.2 fold"),
    ("H183/L072 with T97Y (Kabat) in VL dBBDu072L (antibody, name in Kabat numbering, V domains shown, Single-mutation variant of H183L072) VH: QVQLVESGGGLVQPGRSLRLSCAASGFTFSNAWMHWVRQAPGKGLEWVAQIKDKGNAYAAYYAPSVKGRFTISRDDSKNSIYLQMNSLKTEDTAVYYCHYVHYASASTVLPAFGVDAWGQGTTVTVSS VL: DIVMTQSPLSLPVTPGEPASISCQASQELVHMNRNTYLHWYQQKPGQAPRLLIYKVSNRFPGVPDRFSGSGSGTDFTLKISRVEAEDVGVYYCAQGTSVPFYFGQGTKLEIK", "0.2 fold"),
    ("H183/L072 with R54Y (Kabat) in VL dBBDu072L (antibody, name in Kabat numbering, V domains shown, Single-mutation variant of H183L072) VH: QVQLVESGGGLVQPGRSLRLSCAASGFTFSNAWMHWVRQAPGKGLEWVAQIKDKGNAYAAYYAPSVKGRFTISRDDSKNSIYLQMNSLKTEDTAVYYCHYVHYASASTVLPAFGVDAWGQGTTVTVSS VL: DIVMTQSPLSLPVTPGEPASISCQASQELVHMNRNTYLHWYQQKPGQAPRLLIYKVSNYFPGVPDRFSGSGSGTDFTLKISRVEAEDVGVYYCAQGTSVPFTFGQGTKLEIK", "1.6 fold"),
    ("H183/L072 with P56Y (Kabat) in VL dBBDu072L (antibody, name in Kabat numbering, V domains shown, Single-mutation variant of H183L072) VH: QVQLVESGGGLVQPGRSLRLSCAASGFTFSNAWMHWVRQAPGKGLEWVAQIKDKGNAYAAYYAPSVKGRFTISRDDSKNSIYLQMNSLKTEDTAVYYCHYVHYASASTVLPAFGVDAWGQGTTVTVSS VL: DIVMTQSPLSLPVTPGEPASISCQASQELVHMNRNTYLHWYQQKPGQAPRLLIYKVSNRFYGVPDRFSGSGSGTDFTLKISRVEAEDVGVYYCAQGTSVPFTFGQGTKLEIK", "2.7 fold"),
]

Lab note: next binder to report on.
May I ask what fold change of affinity for CD3 has been recorded for H183/L072 with A89Y (Kabat) in VL dBBDu072L (antibody, name in Kabat numbering, V domains shown, Single-mutation variant of H183L072) VH: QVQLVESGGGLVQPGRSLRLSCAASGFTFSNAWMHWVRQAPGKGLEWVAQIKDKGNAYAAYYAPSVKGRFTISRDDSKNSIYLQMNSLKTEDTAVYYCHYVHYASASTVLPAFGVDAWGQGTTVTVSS VL: DIVMTQSPLSLPVTPGEPASISCQASQELVHMNRNTYLHWYQQKPGQAPRLLIYKVSNRFPGVPDRFSGSGSGTDFTLKISRVEAEDVGVYYCYQGTSVPFTFGQGTKLEIK ? 0.5 fold
